Origin of measurements: paper PMC7555970

System: E. coli (K12)
Assay: Minimum inhibitory concentration (MIC) assay against E. coli
Assay type: cell-based
Settings: Escherichia coli
Reported MIC values for a set of compounds
Write the answer as a number in µM, unit excluded.

Here is how some compounds turned out for MIC.
>>> value_observed("CCCCCCCCS(=O)(=O)Nc1ccc(-c2ccc3ccccc3c2)cc1C(=O)C(=O)NCCC[N+](C)(C)C.[I-] [Compound 15d]")
63
>>> value_observed("CCCCCCCCS(=O)(=O)Nc1ccc(-c2ccc(Cl)cc2)cc1C(=O)C(=O)NCCCNC(=N)N.Cl [Compound 22c]")
63
>>> value_observed("CCCCCCCCS(=O)(=O)Nc1ccc(-c2ccc(Cl)cc2)cc1C(=O)C(=O)NCCC[N+](C)(C)C.[I-] [Compound 15c]")
16
>>> value_observed("CCCCCCCCS(=O)(=O)Nc1ccc(-c2ccccc2)cc1C(=O)C(=O)NCCC[N+](C)(C)C [Compound 15a]")
32
>>> value_observed("CCCCCCCCS(=O)(=O)Nc1ccc(-c2ccccc2)cc1C(=O)C(=O)NCCCNC(=N)N.Cl [Compound 22a]")
63
>>> value_observed("CCCCCCCCS(=O)(=O)Nc1ccc(-c2ccc(F)cc2)cc1C(=O)C(=O)NCCC[N+](C)(C)C [Compound 15b]")
32

Next item in the queue.
## Input Returns the measured MIC for the input compound. Input: CCCCCCCCS(=O)(=O)Nc1ccc(-c2ccc(F)cc2)cc1C(=O)C(=O)NCCCNC(=N)N.Cl [Compound 22b]
## Output 16
